- subject of test: T1, PSMA Fab (006 PSMA Fab) (biotinylated (site not given))
- T1 construct: also called Anti-PSMA Fab; anti-PSMA Fab
- procedure text: clonal phage ELISA; biotinylated PSMA Fab on neutravidin plate, blocking buffer alone; anti-M13 HRP detection;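 also: crude clonal phage supernatants added without washing to wells pretreated with blocking buffer with or without PSMA antigen, short incubation, then washed before detecting bound phage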
Where no end group is shown, it is not given here.
reported endpoint: Phage binding ELISA signal, Anti-PSMA Fab

{"columns": ["binder", "measured value"],
 "data": [
  ["DLKWCIPSWMCTST (cysteine pairing not given here; also: displayed on phage pIII, linker not given here, Clonal phage of the Peptide-180 library, tested as crude phage supernatant; not shown: pIII filament protein of the bacteriophage) [Phage-2642]", 0.957],
  ["VEKLCKPAWMCNGQ (cysteine pairing not given here; also: displayed on phage pIII, linker not given here, Clonal phage of the Peptide-180 library, tested as crude phage supernatant; not shown: pIII filament protein of the bacteriophage) [Phage-2643]", 0.956],
  ["DMKWCTPAWMCQSS (cysteine pairing not given here; also: displayed on phage pIII, linker not given here, Clonal phage of the Peptide-180 library, tested as crude phage supernatant; not shown: pIII filament protein of the bacteriophage) [Phage-2635]", 0.966],
  ["AEKLCIPDWMCDVY (cysteine pairing not given here; also: displayed on phage pIII, linker not given here, Clonal phage of the Peptide-180 library, tested as crude phage supernatant; not shown: pIII filament protein of the bacteriophage) [Phage-2641]", 0.957]
]}

These data points were gathered from patent US20260242478A1.
